inhibition at 0.1 µM values for the molecules below.
target: DDR1 (Homo sapiens, UniProt Q08345)
Sequence (Q08345 19-913): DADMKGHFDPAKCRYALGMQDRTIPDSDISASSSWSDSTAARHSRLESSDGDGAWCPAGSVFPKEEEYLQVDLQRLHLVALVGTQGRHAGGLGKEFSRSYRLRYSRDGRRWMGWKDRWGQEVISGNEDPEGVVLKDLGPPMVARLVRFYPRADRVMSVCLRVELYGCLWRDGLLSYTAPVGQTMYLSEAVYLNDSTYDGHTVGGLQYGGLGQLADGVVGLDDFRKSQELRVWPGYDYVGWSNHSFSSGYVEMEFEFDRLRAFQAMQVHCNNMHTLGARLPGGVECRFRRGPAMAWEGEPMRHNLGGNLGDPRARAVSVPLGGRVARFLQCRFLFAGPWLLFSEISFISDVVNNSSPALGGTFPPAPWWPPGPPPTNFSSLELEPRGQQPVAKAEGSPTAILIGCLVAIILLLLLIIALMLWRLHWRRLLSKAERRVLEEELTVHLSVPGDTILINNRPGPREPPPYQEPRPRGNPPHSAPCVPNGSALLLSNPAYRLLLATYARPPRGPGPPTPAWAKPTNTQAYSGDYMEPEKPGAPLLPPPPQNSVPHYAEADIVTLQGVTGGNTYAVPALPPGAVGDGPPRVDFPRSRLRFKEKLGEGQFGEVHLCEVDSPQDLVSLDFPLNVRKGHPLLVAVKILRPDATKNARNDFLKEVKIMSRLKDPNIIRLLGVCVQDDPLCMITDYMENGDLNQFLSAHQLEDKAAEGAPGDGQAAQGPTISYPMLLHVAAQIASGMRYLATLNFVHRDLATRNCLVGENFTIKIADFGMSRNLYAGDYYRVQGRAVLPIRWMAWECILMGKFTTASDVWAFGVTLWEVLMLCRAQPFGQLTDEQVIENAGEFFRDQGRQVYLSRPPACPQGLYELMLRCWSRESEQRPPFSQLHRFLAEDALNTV
experimental_details: DDR1 in vitro kinase activity assay (LanthaScreen Eu-anti-GST antibody / Kinase Tracer 178)
Type: binding
condition_set: compound 100 nM; read-out: DDR1 inhibition rate, 100 nM
Protocol: DDR1 in vitro Kinase Activity Assay: • ENVISION (Perkinelmer, 2104) • White 384-well MicroPlate (Cat #264706, Nunc) • DDR1 (Cat #PV6047, Invitrogen) • 5× Kinase Buffer A (Cat #PV3189, Invitrogen) • Kinase Tracer 178 (Cat #PV5593, Invitrogen) • LanthaScreen® Eu-anti-GST Antibody (Cat #PV5594, Invitrogen) The compounds to be tested were tested at two concentrations of 100 nM and 10 nM. […]
quantity: inhibition at 0.1 µM (%)

- Cc1cccc(NC(=O)c2cccc3c2CC[C@@H]3Nc2cncc(-c3cnn(C)c3)c2)c1: 95.1
- Cc1cccc(NC(=O)c2cccc3c2CC[C@@H]3Oc2cnc3cn(C)nc3c2)n1 [Compound 76bd]: 69.7
- Cn1ncc2ncc(N[C@H]3CCc4c(C(=O)Nc5cccc(C6CC6)c5)cccc43)cc21: 103
- Cn1cc(-c2cnc(N)c(O[C@H]3CCc4c(C(=O)Nc5cccc(C6CC6)c5)cccc43)c2)cn1: 98.2
- CN1CCc2nc(NC(=O)c3cccc4c3CC[C@@H]4Oc3cncc(-c4cnn(C)c4)c3)sc2C1 [Compound 19f]: 53.5
- Cc1cncc(NC(=O)c2cccc3c2CC[C@@H]3Nc2cncc(-c3cnn(C)c3)c2)c1 [Compound 14as]: 103
- CN(c1cnc2cn(C)nc2c1)[C@H]1CCc2c(C(=O)Nc3nn(C)c4ccccc34)cccc21 [Compound 80l]: 97.9
- Cn1cc(-c2cncc(N[C@H]3CCc4c(C(=O)Nc5cncc(Cl)c5)cccc43)c2)cn1 [Compound 14aa]: 104
- Cn1cc(-c2cncc(O[C@H]3CCc4c(C(=O)Nc5cccc(C6CC6)c5)cccc43)c2)cn1 [Compound 19b]: 105
- CN(C)Cc1cncc(NC(=O)c2cccc3c2CC[C@@H]3Oc2cncc(-c3cnn(C)c3)c2)c1 [Compound 19h]: 97.1
- CN1CCc2nc(NC(=O)c3cccc4c3CC[C@@H]4Nc3cncc(-c4cnn(C)c4)c3)sc2C1 [Compound 14ba]: 61.4
- CN1CCc2ccc(NC(=O)c3cccc4c3CC[C@@H]4Nc3cncc(-c4cnn(C)c4)c3)cc2C1 [Compound 14ap]: 100
- CN(c1cncc(-c2cnn(C)c2)c1)[C@H]1CCc2c(C(=O)Nc3cncc(Cl)c3)cccc21: 88
- Cn1ncc2ncc(N[C@H]3CCc4c(Nc5cc(C(C)(C)C)on5)cccc43)nc21: 98.4
- Cn1cc2ncc(O[C@H]3CCc4c(C(=O)Nc5nn(C)c6ccccc56)cccc43)cc2n1 [Compound 76al]: 98.5
- CN(c1cncc(-c2cnn(C)c2)c1)[C@H]1CCc2c(C(=O)Nc3cccc(C4CC4)c3)cccc21 [Compound 22a]: 86
- CN(c1cnc2cn(C)nc2c1)[C@H]1CCc2c(C(=O)Nc3cncc(Cl)c3)cccc21 [Compound 80k]: 83.9

---

target: UniProt:P07333
Sequence (P07333 20-972): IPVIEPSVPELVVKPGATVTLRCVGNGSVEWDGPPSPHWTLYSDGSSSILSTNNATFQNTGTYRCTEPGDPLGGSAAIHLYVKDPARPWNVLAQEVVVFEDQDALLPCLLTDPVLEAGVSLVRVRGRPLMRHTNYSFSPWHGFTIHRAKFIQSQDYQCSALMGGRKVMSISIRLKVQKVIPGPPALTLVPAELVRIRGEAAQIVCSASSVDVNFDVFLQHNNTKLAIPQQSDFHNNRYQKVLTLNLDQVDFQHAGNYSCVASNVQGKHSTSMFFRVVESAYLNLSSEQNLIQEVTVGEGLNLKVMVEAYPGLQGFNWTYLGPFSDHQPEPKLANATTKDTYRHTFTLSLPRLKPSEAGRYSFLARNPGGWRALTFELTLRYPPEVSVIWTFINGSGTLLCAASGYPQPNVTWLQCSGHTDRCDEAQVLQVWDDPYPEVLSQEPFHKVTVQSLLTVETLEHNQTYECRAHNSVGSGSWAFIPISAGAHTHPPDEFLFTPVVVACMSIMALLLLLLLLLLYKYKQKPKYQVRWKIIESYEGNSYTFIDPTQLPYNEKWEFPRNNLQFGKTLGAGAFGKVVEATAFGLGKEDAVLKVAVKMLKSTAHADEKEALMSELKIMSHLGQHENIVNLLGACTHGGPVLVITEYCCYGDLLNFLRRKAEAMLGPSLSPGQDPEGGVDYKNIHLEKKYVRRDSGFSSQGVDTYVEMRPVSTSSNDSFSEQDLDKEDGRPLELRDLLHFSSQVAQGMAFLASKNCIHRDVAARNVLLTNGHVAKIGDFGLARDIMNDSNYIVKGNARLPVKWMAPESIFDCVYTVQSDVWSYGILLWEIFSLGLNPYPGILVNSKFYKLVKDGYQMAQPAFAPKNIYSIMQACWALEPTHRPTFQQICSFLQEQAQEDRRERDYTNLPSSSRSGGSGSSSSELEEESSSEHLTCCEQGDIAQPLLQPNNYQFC
experimental_details: CSF-1R in vitro kinase activity assay (HTRF kinEASE TK)
Format: biochemical
condition_set: compound 10 nM; read-out: CSF-1R inhibition rate, 10 nM
Excerpt: CSF-1R, PDGFR-α, KDR (VEGFR2) and KIT in vitro Kinase Activity Assay: […]
The label depends only on inhibition at 0.01 µM: t if it is at least 70%, f if it is smaller.

* CN1CCc2nc(NC(=O)c3cccc4c3CC[C@@H]4Oc3cncc(-c4cnn(C)c4)c3)sc2C1 [Compound 19f] | f
* Cc1cccc(C(=O)Nc2cccc3c2CC[C@@H]3Oc2cncc(-c3cnn(C)c3)c2)c1 [Compound 15] | f
* Cn1cc2ncc(O[C@H]3CCc4c(C(=O)Nc5nn(C)c6ccccc56)cccc43)cc2n1 [Compound 76al] | t
* CN(c1cncc(-c2cnn(C)c2)c1)[C@H]1CCc2c(C(=O)Nc3cncc(Cl)c3)cccc21 [Compound 21] | f
* Cn1cc2ncc(N[C@H]3CCc4c(C(=O)Nc5nc(C6CC6)cs5)cccc43)cc2n1 [Compound 74h] | t
* Cn1cc(-c2cncc(O[C@H]3CCc4c(C(=O)Nc5cncc(Cl)c5)cccc43)c2)cn1 [Compound 19a] | t
* Cc1cncc(NC(=O)c2cccc3c2CC[C@@H]3Oc2cncc(-c3cnn(C)c3)c2)c1 [Compound 19j] | t
* CN(c1cnc2cn(C)nc2c1)[C@H]1CCc2c(C(=O)Nc3cncc(Cl)c3)cccc21 [Compound 80k] | t
* Cn1cc(-c2cncc(N[C@H]3CCc4c(C(=O)Nc5cncc(Cl)c5)cccc43)c2)cn1 [Compound 14aa] | t
* Cn1cc(-c2cncc(N[C@H]3CCc4c(C(=O)Nc5ccc(C(F)(F)F)nc5)cccc43)c2)cn1 [Compound 14ah] | f
* CN1CCc2ccc(NC(=O)c3cccc4c3CC[C@@H]4Nc3cncc(-c4cnn(C)c4)c3)cc2C1 [Compound 14ap] | f
* Cc1cccc(NC(=O)c2cccc3c2CC[C@@H]3Nc2cncc(-c3cnn(C)c3)c2)c1 [Compound 13] | t
* CN(c1cncc(-c2cnn(C)c2)c1)[C@H]1CCc2c(C(=O)Nc3cccc(C4CC4)c3)cccc21 [Compound 22a] | f
* Cn1cc(-c2cncc(N[C@H]3CCc4c(Nc5noc(C(C)(C)C)n5)cccc43)c2)cn1 [Compound 42o] | f

---

Measured inhibition at 0.1 µM accompanies every entry in the list below.
target: DDR1 (Homo sapiens, UniProt Q08345)
experimental_details: DDR1 in vitro kinase activity assay (LanthaScreen Eu-anti-GST antibody / Kinase Tracer 178)
Type: binding
condition_set: compound 100 nM; read-out: DDR1 inhibition rate, 100 nM
quantity: inhibition at 0.1 µM (%)

• Cn1cc(-c2cncc(N[C@H]3CCc4c(C(=O)Nc5ccc(C(F)(F)F)nc5)cccc43)c2)cn1 [Compound 14ah] = 85.6
• Cn1cc(-c2cncc(N[C@H]3CCc4c(C(=O)Nc5nn(C)c6ccccc56)cccc43)n2)cn1 [Compound 27g] = 101
• Cn1cc2ncc(O[C@H]3CCc4c(C(=O)Nc5nn(C)c6cccc(F)c56)cccc43)cc2n1 [Compound 76aw] = 93.6
• Cn1cc(-c2cncc(N[C@H]3CCc4c(Nc5cc(C(C)(C)C)on5)cccc43)c2)cn1 [Compound 41] = 78.2

---

target: UniProtKB P35968
Sequence (P35968 20-1356): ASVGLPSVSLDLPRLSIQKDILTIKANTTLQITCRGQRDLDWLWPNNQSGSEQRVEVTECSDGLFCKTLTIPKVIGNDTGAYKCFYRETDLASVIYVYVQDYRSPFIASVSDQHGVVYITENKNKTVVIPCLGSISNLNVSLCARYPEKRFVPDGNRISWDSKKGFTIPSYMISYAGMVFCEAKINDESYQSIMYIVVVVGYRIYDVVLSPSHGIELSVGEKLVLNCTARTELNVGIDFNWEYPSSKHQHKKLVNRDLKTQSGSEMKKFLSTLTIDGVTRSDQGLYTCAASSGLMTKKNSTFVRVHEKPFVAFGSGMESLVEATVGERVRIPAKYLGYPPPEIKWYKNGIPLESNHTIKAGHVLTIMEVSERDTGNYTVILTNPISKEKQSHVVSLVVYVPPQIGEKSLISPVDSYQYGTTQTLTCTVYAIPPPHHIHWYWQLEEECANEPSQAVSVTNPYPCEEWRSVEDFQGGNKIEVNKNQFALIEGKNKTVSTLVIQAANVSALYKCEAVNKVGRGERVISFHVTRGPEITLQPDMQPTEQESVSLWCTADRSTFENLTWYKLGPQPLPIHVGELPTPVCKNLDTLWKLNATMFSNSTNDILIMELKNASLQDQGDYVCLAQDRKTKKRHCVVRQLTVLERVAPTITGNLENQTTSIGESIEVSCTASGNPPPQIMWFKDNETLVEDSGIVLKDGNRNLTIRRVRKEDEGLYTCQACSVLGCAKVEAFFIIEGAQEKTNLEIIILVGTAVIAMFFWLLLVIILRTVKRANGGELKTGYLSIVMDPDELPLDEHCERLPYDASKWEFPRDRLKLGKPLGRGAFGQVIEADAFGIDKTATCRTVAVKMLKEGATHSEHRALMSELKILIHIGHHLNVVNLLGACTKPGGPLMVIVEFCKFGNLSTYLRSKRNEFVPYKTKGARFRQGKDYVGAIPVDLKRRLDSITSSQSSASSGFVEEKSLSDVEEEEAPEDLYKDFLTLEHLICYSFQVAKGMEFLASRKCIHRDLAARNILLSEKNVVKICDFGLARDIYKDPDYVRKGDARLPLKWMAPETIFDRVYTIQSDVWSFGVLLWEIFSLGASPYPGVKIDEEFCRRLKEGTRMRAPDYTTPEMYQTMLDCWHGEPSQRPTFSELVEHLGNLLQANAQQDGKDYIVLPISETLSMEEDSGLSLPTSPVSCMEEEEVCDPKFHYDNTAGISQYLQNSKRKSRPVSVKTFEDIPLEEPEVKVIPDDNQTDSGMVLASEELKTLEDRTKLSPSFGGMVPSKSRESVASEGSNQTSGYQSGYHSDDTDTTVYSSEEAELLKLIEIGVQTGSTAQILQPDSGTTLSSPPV
experimental_details: KDR (VEGFR2) in vitro kinase activity assay (HTRF kinEASE TK)
Type: biochemical
condition_set: compound 10 nM; read-out: VEGFR2 inhibition rate, 10 nM
Measured inhibition at 0.01 µM by item
quantity: inhibition at 0.01 µM (%)

• Cn1ncc2ncc(O[C@H]3CCc4c(C(=O)Nc5cncc(Cl)c5)cccc43)cc21 [Compound 76ac] = 85.4
• Cn1cc(-c2cncc(N[C@H]3CCc4c(C(=O)Nc5cncc(Cl)c5)cccc43)c2)cn1 [Compound 14aa] = 83.1
• Cn1cc(-c2cncc(N[C@H]3CCc4c(Nc5cc(C(C)(C)C)on5)cccc43)c2)cn1 [Compound 41] = 18.6
• Cn1cc(-c2cncc(O[C@H]3CCc4c(C(=O)Nc5cncc(Cl)c5)cccc43)c2)cn1 [Compound 19a] = 92.3
• Cc1cncc(NC(=O)c2cccc3c2CC[C@@H]3Oc2cncc(-c3cnn(C)c3)c2)c1 [Compound 19j] = 91.7
• Cn1cc(-c2cncc(O[C@H]3CCc4c(C(=O)Nc5cccc(C6CC6)c5)cccc43)c2)cn1 [Compound 19b] = 93.6
• Cn1cc(-c2cncc(N[C@H]3CCc4c(Nc5noc(C(C)(C)C)n5)cccc43)c2)cn1 [Compound 42o] = 28.9
• CN(c1cnc2cn(C)nc2c1)[C@H]1CCc2c(C(=O)Nc3nn(C)c4ccccc34)cccc21 [Compound 80l] = 95
• Cc1cccc(NC(=O)c2cccc3c2CC[C@@H]3Oc2cnc3cn(C)nc3c2)n1 [Compound 76bd] = 93.2
• Cn1ncc2ncc(N[C@H]3CCc4c(C(=O)Nc5cccc(C6CC6)c5)cccc43)cc21 [Compound 73] = 68.3
• Cn1cc2ncc(O[C@H]3CCc4c(C(=O)Nc5cncc(Cl)c5)cccc43)cc2n1 [Compound 76ai] = 96.5
• CN1CCc2ccc(NC(=O)c3cccc4c3CC[C@@H]4Nc3cncc(-c4cnn(C)c4)c3)cc2C1 [Compound 14ap] = 14.7
• Cn1cc(-c2cncc(N[C@H]3CCc4c(C(=O)Nc5ccc(C(F)(F)F)nc5)cccc43)c2)cn1 [Compound 14ah] = 26.8
• CN1CCc2nc(NC(=O)c3cccc4c3CC[C@@H]4Nc3cncc(-c4cnn(C)c4)c3)sc2C1 [Compound 14ba] = 29.2
• Cn1ncc2ncc(N[C@H]3CCc4c(Nc5cc(C(C)(C)C)on5)cccc43)nc21 [Compound 86] = 12.9
• Cn1cc(-c2cncc(N[C@H]3CCc4c(C(=O)Nc5nn(C)c6ccccc56)cccc43)n2)cn1 [Compound 27g] = 88.9
